Origin of measurements: patent US20250027068

Assayed Target: pooled human IgG (human IgG1, 2, 3 and 4)
Measurement Label: Enzyme Activity Endpoint Assay (purified): Fab′2 (ng/µL)
Give bare numbers, in ng/µL.

PRT-661 (protein) MQITSVWTKGVTPLTPEQFRYNNEDVIHAPYLANQGWYDITKTFDGKDNLLCGAATAGNMLHWWFDQNKTEIEAYLSKHPEKQKIIFNNQELFDLKKAIDTKDSQTNSQLFNYFRDKAFPNLSARQLGVMPDLVLDMFINGYYLNVFKTQSTDVNRPYQDKDKRGGIFDAVFTRGDQTTLLTARHDLKNKGLNDISTIIKQELTEGRALALSHTYANVSISHVINLWGADFNAEGNLEAIYVTDSDSNASIGMKKYFVGINAAGHVAISAKKIEGENIGAQVLGLFTLSSGKDIWQKLSLEHHHHHH :: 187

Just so you know, measured Enzyme Activity Endpoint Assay (purified): Fab′2 for PRT-475 (protein) MVTSVWTKGVTPPTNFRKIVDGNIAYYHAPYVANQGWYDITKTFNGKDDLLCGAATAGNMLHWWFDQNKEQIENYLKKHPEKQKINFNGEQMFDVKEAIDTKDSQLDSKLFEYFKEKAFPYLSTKHLGVFPDHVIDMFINGYRLSLTNHGPTPVKRGSKDPRGGIFDAVFTRGDQSKLLTNRHDLKNKTLKEISDLIKQELTEGKALGISHTYANVRINHVINLWGADFDAEGNLEAIYVTDSDSNASIGMKKYFVGVNSNGKVAISAKEIEEDNIGAQVLGLFTLSTGQDIWNQTNLEHHHHHH came out at 1150
